TARGET DESC: human PPARδ ligand-binding domain (Gal4 chimera) (Homo sapiens)
Construct: coding for the hinge region and LBD of the canonical isoform of the respective nuclear receptor; expressed in transfected cells; host or cells: HEK293T
Sequence (Q03181 211-439 limits assumed): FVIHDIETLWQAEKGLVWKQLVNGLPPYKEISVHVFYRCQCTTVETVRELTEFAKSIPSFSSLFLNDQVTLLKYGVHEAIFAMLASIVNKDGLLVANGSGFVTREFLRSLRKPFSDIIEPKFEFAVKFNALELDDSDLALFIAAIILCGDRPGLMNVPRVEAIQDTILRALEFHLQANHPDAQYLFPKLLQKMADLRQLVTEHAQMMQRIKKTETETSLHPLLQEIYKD
RUN DESCRIPTION: Gal4 hybrid reporter gene assay, PPARδ
Format: cell-based
CONDITIONS: EC50 [μM] PPARδ, HEK293T; mean ± SEM, n = 3
RESULT TYPE: EC50 (µM)
One number for each entry, in µM.

Illustrative cases are given below, each with its answer.
SMILES: Cc1cccc(NC(=O)c2ccc3ccccc3c2)c1C(=O)Nc1cccc(CCC(=O)O)c1
EC50 (µM): 6.3
--
SMILES: CC(C)(C)c1ccc(C(=O)Nc2cccc(CCC(=O)O)c2)c(NC(=O)c2ccc(-c3ccco3)cc2)c1
EC50 (µM): 0.14
--
SMILES: O=C(O)CCc1cccc(NC(=O)c2ccccc2NC(=O)c2ccc(-c3ccco3)cc2)c1
EC50 (µM): 0.2
--
SMILES: O=C(O)CCc1cccc(NC(=O)c2ccccc2NC(=O)c2ccc(-c3ccsc3)cc2)c1
EC50 (µM): 1.6
--
SMILES: COc1ccc(NC(=O)c2ccc3ccccc3c2)c(C(=O)Nc2cccc(CCC(=O)O)c2)c1
EC50 (µM): 0.36

Could you report EC50 for every entry in the following list?
1. O=C(O)CCc1cccc(NC(=O)c2ccccc2NC(=O)c2ccc3ccccc3c2)c1
2. COc1ccc(C(=O)Nc2cccc(CCC(=O)O)c2)c(NC(=O)c2ccc3ccccc3c2)c1
3. Cc1cccc(C(=O)Nc2cccc(CCC(=O)O)c2)c1NC(=O)c1ccc2ccccc2c1
4. O=C(O)CCc1cccc(NC(=O)c2cc(Cl)ccc2NC(=O)c2ccc3ccccc3c2)c1

Resp:
[0.65, 0.06, 2.7, 0.28]

Could you report EC50 for every entry in the following list?
1. O=C(O)CCc1cccc(NC(=O)c2ccc(Cl)cc2NC(=O)c2ccc3ccccc3c2)c1
2. O=C(O)CCc1cccc(NC(=O)c2ccccc2NC(=O)c2ccc(-c3cocn3)cc2)c1
3. Cc1ccc(C(=O)Nc2cccc(CCC(=O)O)c2)c(NC(=O)c2ccc3ccccc3c2)c1
4. O=C(O)CCc1cccc(NC(=O)c2ccc(O)cc2NC(=O)c2ccc3ccccc3c2)c1

Resp:
1: 1.9; 2: 12; 3: 0.17; 4: 2.4

Could you report EC50 for every entry in the following list?
1. CC(C)(Nc1cccc(NC(=O)c2ccccc2NC(=O)c2ccc3ccccc3c2)c1)C(=O)O
2. Cc1ccc(NC(=O)c2ccc3ccccc3c2)c(C(=O)Nc2cccc(CCC(=O)O)c2)c1

Resp:
[3.6, 0.21]
